Target: Prostaglandin G/H synthase 1 (Ovis aries)
Sequence (P05979 whole entry): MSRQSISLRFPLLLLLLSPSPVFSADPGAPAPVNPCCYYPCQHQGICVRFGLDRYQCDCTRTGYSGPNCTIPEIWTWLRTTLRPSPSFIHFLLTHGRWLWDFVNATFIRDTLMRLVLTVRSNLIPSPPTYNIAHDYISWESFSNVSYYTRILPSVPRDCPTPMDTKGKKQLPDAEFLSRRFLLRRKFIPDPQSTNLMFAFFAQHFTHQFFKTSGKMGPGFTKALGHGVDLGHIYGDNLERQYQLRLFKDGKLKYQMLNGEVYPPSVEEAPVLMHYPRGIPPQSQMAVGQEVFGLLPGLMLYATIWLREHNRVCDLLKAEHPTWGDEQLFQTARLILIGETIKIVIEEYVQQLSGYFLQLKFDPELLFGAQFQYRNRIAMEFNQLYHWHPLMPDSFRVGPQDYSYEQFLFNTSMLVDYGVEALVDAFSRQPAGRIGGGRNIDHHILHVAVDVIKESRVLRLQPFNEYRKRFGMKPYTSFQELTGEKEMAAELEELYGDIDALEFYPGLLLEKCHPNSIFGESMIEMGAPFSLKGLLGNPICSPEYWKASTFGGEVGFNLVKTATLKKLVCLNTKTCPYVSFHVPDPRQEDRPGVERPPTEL
hey, just use true (1) if measured IC50 is less than 10 µM, otherwise false (0)

is_below(IC50, 10 µM) for CSc1nc2ccccc2n1-c1csc(NC/C(C)=N/N=C2\SCC(=O)N2c2ccccc2)n1 ?
false (0)

Is the reported IC50 for CSc1nc2ccccc2n1-c1csc(NC(=O)c2ccc(C)cc2)n1 strictly below 10 µM?
true (1)

Identify whether the compound CSc1nc2ccccc2n1-c1csc(NC/C(C)=N/NC(=S)Nc2ccccc2)n1 records IC50 below 10 µM.
false (0)

New cases:
Problem: For the compound CSc1nc2ccccc2n1-c1csc(N)n1 , is IC50 under 10 µM?
true (1)

====

Target: Prostaglandin G/H synthase 2 (Homo sapiens, UniProt P35354)
Sequence (P35354 whole entry): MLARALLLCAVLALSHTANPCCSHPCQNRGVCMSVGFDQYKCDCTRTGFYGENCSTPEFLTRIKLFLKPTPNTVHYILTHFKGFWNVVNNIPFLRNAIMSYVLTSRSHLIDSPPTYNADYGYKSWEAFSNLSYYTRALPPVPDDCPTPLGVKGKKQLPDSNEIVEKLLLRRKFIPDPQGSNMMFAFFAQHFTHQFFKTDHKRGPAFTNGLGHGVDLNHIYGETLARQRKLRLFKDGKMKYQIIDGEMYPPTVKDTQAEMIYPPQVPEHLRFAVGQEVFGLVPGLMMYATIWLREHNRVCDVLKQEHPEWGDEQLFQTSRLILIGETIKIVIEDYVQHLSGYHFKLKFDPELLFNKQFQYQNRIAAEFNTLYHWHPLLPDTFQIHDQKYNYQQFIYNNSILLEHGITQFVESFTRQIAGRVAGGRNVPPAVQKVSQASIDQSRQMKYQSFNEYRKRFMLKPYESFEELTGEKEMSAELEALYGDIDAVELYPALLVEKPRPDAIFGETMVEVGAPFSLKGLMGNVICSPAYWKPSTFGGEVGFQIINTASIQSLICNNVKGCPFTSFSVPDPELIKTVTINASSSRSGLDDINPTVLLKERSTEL
pIC50: −log10 of the molar value.
MEASURED_ENDPOINT: pIC50

Lab note: need pIC50 for Clc1ccc(-c2nnc(Cn3c(CN4CCCCC4)nc4ccccc43)o2)cc1 on Prostaglandin G/H synthase 2 (Homo sapiens, UniProt P35354), anyone have it?
6.09 to 7.22

====

IC50 values by entry
Test: Inhibition of soybean 15-LOX using arachidonic acid or linoleic acid as substrate preincubated for 5 mins followed by substrate addition and measured after 10 mins by colorimetric assay
Parameters: species or system Glycine max
Reply with just the number (in µM).

What value of measured IC50 is listed for CSc1nc2ccccc2n1-c1csc(NCC(C)=O)n1 ?
2.93

For the compound shown here, CSc1nc2ccccc2n1-c1csc(NC(=O)c2ccc(Cl)cc2)n1 , give the reported IC50.
5.11

Query: IC50; subject: O=c1c(O)c(-c2ccc(O)c(O)c2)oc2cc(O)cc(O)c12
3.34

Quick one: IC50 of CSc1nc2ccccc2n1-c1csc(NC/C(C)=N/N=C2\SCC(=O)N2c2ccccc2)n1 ?
1.96

Which IC50 value belongs to O=C1N/C(=N\c2nnc(-c3ccc(O)cc3)s2)S/C1=C\c1ccc(Cl)c(Cl)c1 ?
11.9

Sample CSc1nc2ccccc2n1-c1csc(NC/C(C)=N/N=c2\scc(-c3ccc(C)cc3)n2-c2ccccc2)n1 — what was its IC50?
2.14

What does the data say about its IC50? Entry: CSc1nc2ccccc2n1-c1csc(NC(=O)c2ccccc2)n1
4.12

Reported IC50 for CCn1c(-n2cc(/C=N/N=C3/NC(=O)CS3)c(-c3ccc(OC)cc3)n2)nc2c1c(=O)n(C)c(=O)n2C : what is it?
1.98

Further cases:
Recorded IC50 for CSc1nc2ccccc2n1-c1csc(NCC(=O)c2ccc(Cl)cc2)n1 , please?
4.15

May I ask what IC50 has been recorded for CSc1nc2ccccc2n1-c1csc2nc(-c3ccccc3)cn12 ?
5.46
